Source of measurements: PubChem BioAssay AID1159580

Assay: chemical genetic growth profiling, strain panel (AID 1159580);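 further: tested at 20 µM; growth read once vehicle control cultures reached saturation at 30 °C; 1 = growth at the plate median or of vehicle wells; lower values mean less growth of the strain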
Conditions: S. cerevisiae deletion strains, growth OD, locus YLR058C, strain SHM2, hits give low values
The whole screen tested about 5,500 compounds, of which about 2,000 (36%) were called active. Inconclusive results (about 18%) are left out. This is one part of the list.
Property Label: normalized growth

INSERT INTO results (compound, result_number) VALUES
  ('CC1(C)C2CC(=O)[C@]3(C)C(CC[C@@]4(C)[C@H](c5ccoc5)OC(=O)[C@H]5O[C@]543)[C@@]2(C)C(=O)C[C@H]1O (some centres undefined)', 1.02),
  ('CC1(C)C(=O)C=C[C@@]2(C)C1CC(=O)[C@]1(C)C2CC[C@@]2(C)[C@H](c3ccoc3)OC(=O)[C@H]3O[C@]321 (some centres undefined)', 0.996),
  ('CC1(C)C(=O)C=C[C@@]2(C)C1C[C@@H](O)[C@]1(C)C2CC[C@@]2(C)[C@H](c3ccoc3)OC(=O)[C@H]3O[C@]321 (some centres undefined)', 0.959),
  ('CC1(C)O[C@H]2CC(=O)OC[C@]23[C@H]2CC[C@@]4(C)[C@H](c5ccoc5)OC(=O)[C@H]5O[C@]54[C@]2(C)C(=O)C[C@@H]13', 1);

---

Recorded normalized growth, one value per entry.
Assay: chemical genetic growth profiling, strain panel (AID 1159580);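 further: tested at 20 µM; growth read once vehicle control cultures reached saturation at 30 °C; 1 = growth at the plate median or of vehicle wells; lower values mean less growth of the strain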
Conditions: S. cerevisiae deletion strains, growth OD, locus YAL030W, strain snc1, hits give low values
About 2,000 (36%) of roughly 5,500 compounds were called active. Roughly 18% stayed inconclusive and do not appear here. This is one part of the list.
Property Label: normalized growth

INSERT INTO results (compound, property_label, result) VALUES
  ('CC1(C)C(=O)C=C[C@@]2(C)C1C=C[C@]1(C)C2CC[C@@]2(C)[C@H](c3ccoc3)OC(=O)C3OC321 (some centres undefined)', 'normalized growth', '0.985 (inactive)'),
  ('CC1(C)C2CC(=O)[C@]3(C)C(CC[C@@]4(C)[C@H](c5ccoc5)OC(=O)[C@H]5O[C@]543)[C@@]2(C)C(=O)C[C@H]1O (some centres undefined)', 'normalized growth', '1.01 (inactive)'),
  ('CCOC(=O)c1c(C)cc(O)cc1O', 'normalized growth', '0.928 (active)'),
  ('CC(C)c1c(O)ccc2c1CCC1[C@@](C)(C=O)CCC[C@]21C (some centres undefined)', 'normalized growth', '0.79 (active)'),
  ('CC1(C)O[C@H]2CC(=O)OC[C@]23[C@H]2CC[C@@]4(C)[C@H](c5ccoc5)OC(=O)[C@H]5O[C@]54[C@]2(C)C(=O)C[C@@H]13', 'normalized growth', '0.98 (inactive)'),
  ('COc1ccc(-c2oc3c(CC=C(C)C)c(O[C@@H]4O[C@H](CO)[C@@H](O)[C@H](O)[C@H]4O)cc(O)c3c(=O)c2O[C@@H]2O[C@@H](C)[C@H](O)[C@@H](O)[C@H]2O)cc1', 'normalized growth', '1.04 (inactive)'),
  ('CC(=O)O[C@@H]1CC2C(C)(C)C(=O)C=C[C@]2(C)C2CC[C@@]3(C)[C@H](c4ccoc4)OC(=O)[C@H]4O[C@]43[C@@]21C (some centres undefined)', 'normalized growth', '0.997 (inactive)'),
  ('Cc1cc(OC(=O)c2c(C)cc(O)cc2O)cc(O)c1C(=O)O', 'normalized growth', '0.995 (inactive)'),
  ('COC(=O)c1c(C)cc(OC)cc1O', 'normalized growth', '0.971 (inactive)');

---

Assay: chemical genetic growth profiling, strain panel (AID 1159580);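 further: tested at 20 µM; growth read once vehicle control cultures reached saturation at 30 °C; 1 = growth at the plate median or of vehicle wells; lower values mean less growth of the strain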
Settings: S. cerevisiae deletion strains, growth OD, locus YHR205W, strain SCH9, hits give low values
The whole screen tested about 5,500 compounds, of which about 2,000 (36%) were called active. Inconclusive results (about 18%) are left out. The list shows a part of the results.
Property Label: normalized growth

INSERT INTO measurements (smi, property_label, result) VALUES
  ('O=C1Nc2ccccc2/C1=C\c1c(Cl)cccc1Cl', 'normalized growth', '0.918 (inactive)'),
  ('Oc1c(Br)cc(Br)cc1C=Nc1ccc(Sc2ccccc2)nc1Sc1ccccc1', 'normalized growth', '0.0625 (active)'),
  ('O=C1C(Cl)=C(Oc2cc(Cl)c(Cl)cc2Cl)C(=O)c2ccccc21', 'normalized growth', '0.125 (active)'),
  ('Oc1c(Cl)cc(Cl)cc1C=Nc1ccc(Sc2ccccc2)nc1Sc1ccccc1', 'normalized growth', '0.462 (active)'),
  ('O=C1Nc2ccccc2/C1=C\c1ccc(Cl)cc1', 'normalized growth', '0.519 (active)'),
  ('O/N=C(/c1ccc(Cl)cc1)c1cc2ccccc2o1', 'normalized growth', '0.675 (inactive)'),
  ('O=C1Nc2ccccc2/C1=C\c1cccc([N+](=O)[O-])c1', 'normalized growth', '0.848 (inactive)'),
  ('Oc1c(Br)cc(Br)cc1/C=N\n1cnnc1', 'normalized growth', '0.0783 (active)'),
  ('COc1cc(Br)cc(C=Nc2ccc(Sc3ccccc3)nc2Sc2ccccc2)c1O', 'normalized growth', '0.696 (inactive)'),
  ('O=C1/C(=C/c2ccccn2)CCc2ccccc21', 'normalized growth', '0.878 (inactive)'),
  ('Cc1cc(Cl)ccc1NNC(=O)c1sccc1Cl', 'normalized growth', '0.878 (inactive)'),
  ('OC(COc1ccc(F)cc1)(c1ccccc1)c1ccccc1', 'normalized growth', '0.977 (inactive)');

---

Recorded normalized growth, one value per entry.
Experiment: chemical genetic growth profiling, strain panel (AID 1159580);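 further: tested at 20 µM; growth read once vehicle control cultures reached saturation at 30 °C; 1 = growth at the plate median or of vehicle wells; lower values mean less growth of the strain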
Conditions: S. cerevisiae deletion strains, growth OD, locus YFR010W, strain ubp6, hits give low values
In all, about 5,500 compounds went through this assay and about 2,000 (36%) were called active. Roughly 18% stayed inconclusive and do not appear here. The list shows a part of the results.
Property Label: normalized growth

INSERT INTO measurements (compound, result_number) VALUES
  ('C[C@@H]1CC[C@@]2(OC1)O[C@H]1CC3C4CC[C@H]5C[C@@H](O)CC[C@]5(C)C4CC[C@]3(C)[C@H]1[C@@H]2C (some centres not stated)', 1),
  ('CC1(C)C=CC(=O)[C@@]2(C)C1CC(=O)[C@]1(C)C2CC[C@@]2(C)[C@H](c3ccoc3)OC(=O)C3OC321 (some centres not stated)', 1.01),
  ('O=C(O)C1=C[C@@H](O)[C@@H](O)[C@H](O)C1', 0.964),
  ('CC(=O)OCC1=C(C(=O)O)N2C(=O)[C@@H](NC(=O)Cc3cccs3)[C@H]2SC1', 1.01),
  ('C[C@@H]([C@H](O)c1ccccc1)N(C)C', 1.02),
  ('CC1CCC2(OC1)OC1CC3C4CC[C@H]5C[C@@H](O)CC[C@]5(C)C4CC(=O)[C@]3(C)C1C2C (some centres not stated)', 0.997),
  ('OC1CC2CCCC(C1)N2Cc1ccccc1 (configuration not stated)', 1),
  ('CC1(C)C2CC(=O)[C@]3(C)C(CC[C@@]4(C)[C@H](c5ccoc5)OC(=O)C5OC543)[C@@]2(C)[C@@H](O)C[C@H]1O (some centres not stated)', 0.994),
  ('CC1CC[C@]2(NC1)O[C@H]1CC3C4CC[C@H]5C[C@@H](O)CC[C@]5(C)C4CC[C@]3(C)[C@H]1[C@@H]2C (some centres not stated)', 0.375),
  ('CC(=O)O[C@@H]1CC2C(C)(C)C(=O)C=C[C@]2(C)C2CC[C@@]3(C)[C@H](c4ccoc4)OC(=O)[C@H]4O[C@]43[C@@]21C (some centres not stated)', 0.966),
  ('C[C@@H]1CC[C@@]2(NC1)O[C@H]1C[C@H]3C4CC=C5C[C@@H](O)CC[C@]5(C)C4CC[C@]3(C)C1[C@@H]2C (some centres not stated)', 0.0951),
  ('CC1(C)C(=O)C=C[C@@]2(C)C1C=C[C@]1(C)C2CC[C@@]2(C)[C@H](c3ccoc3)OC(=O)C3OC321 (some centres not stated)', 1),
  ('CC1(C)O[C@H]2CC(=O)OC[C@]23[C@H]2CC[C@@]4(C)[C@H](c5ccoc5)OC(=O)[C@H]5O[C@]54[C@]2(C)C(=O)C[C@@H]13', 0.986),
  ('CCCCC1C(=O)N(c2ccccc2)N(c2ccc(O)cc2)C1=O (configuration not stated)', 1.01),
  ('NC(=NCCC[C@H](N)C(=O)O)N[N+](=O)[O-]', 1.03),
  ('N#Cc1nn(-c2c(Cl)cc(C(F)(F)F)cc2Cl)c(N)c1S(=O)C(F)(F)F (configuration not stated)', 0.939),
  ('CC1CC[C@@]2(OC1)O[C@H]1CC3C4CC[C@@H]5C[C@@H](O)CC[C@]5(C)C4CC[C@]3(C)[C@H]1[C@@H]2C (some centres not stated)', 1.06);
